Biological target: Kappa-type opioid receptor (Homo sapiens, UniProt P41145)
Sequence (P41145 whole entry): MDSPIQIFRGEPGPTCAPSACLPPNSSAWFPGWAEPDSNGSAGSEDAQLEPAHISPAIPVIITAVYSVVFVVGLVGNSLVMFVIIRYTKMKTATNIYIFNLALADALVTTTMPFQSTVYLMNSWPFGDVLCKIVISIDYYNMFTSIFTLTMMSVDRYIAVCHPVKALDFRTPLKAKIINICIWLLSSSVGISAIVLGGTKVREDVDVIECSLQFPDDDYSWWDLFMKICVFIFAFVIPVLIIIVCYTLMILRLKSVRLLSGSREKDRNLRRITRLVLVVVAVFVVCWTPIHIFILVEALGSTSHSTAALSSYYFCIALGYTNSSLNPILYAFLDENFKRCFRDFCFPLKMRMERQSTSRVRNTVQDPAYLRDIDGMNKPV
Observation Type: pKi
Answers are plain numbers, as −log10 of the molar value.

Input line: For the compound CN1CCNC(=O)[C@H](Cc2ccccc2)NC(=O)CNC(=O)[C@H](NC(=O)[C@@H](N)Cc2ccc(O)cc2)C1 , what pKi is on record?
Output line: 6.47

---

Tested on: Rattus norvegicus
Assay: In vivo efficacy was measured using thermal escape assay
Format: functional
I'd appreciate it if you could supply ED50 values for the items below.
Numbers only, in µg.

Example compounds with recorded ED50:
CC1(C)SSC(C)(C)C(NC(=O)[C@@H](N)Cc2ccc(O)cc2)C(=O)NCC(=O)N[C@@H](Cc2ccccc2)C(=O)NC1C(=O)O (single isomer, unassigned) : 54
CN1CCNC(=O)[C@H](Cc2ccccc2)NC(=O)CNC(=O)[C@H](NC(=O)[C@@H](N)Cc2ccc(O)cc2)C1 : 0.027
C[C@@H](NC(=O)[C@@H](N)Cc1ccc(O)cc1)C(=O)NCC(=O)N(C)[C@@H](Cc1ccccc1)C(=O)NCCO [DAMGO] : 0.14

Proceeding to the next compound to report its ED50.
Input line: Value wanted: ED50 (Rattus norvegicus) of entry CN1CC[C@]23c4c5ccc(O)c4O[C@H]2[C@@H](O)C=C[C@H]3[C@H]1C5 [MORPHINE]
Output line: 2.4
